Test: Oral bioavailability in Sprague-Dawley rat at 10 mg/kg, po
Assay type: ADME, organism-based
Conditions: in vivo
Experimental Readout: bioavailability (%)
The answer is to be given in %; state only the numeric part.

## Input # lookup: bioavailability of `COc1ccc2c(O[C@@H]3C[C@H]4C(=O)N[C@]5(C(=O)NS(=O)(=O)C6(C)CC6)C[C@H]5/C=C\CCCCCC(=O)N4C3)cc(-c3nc(C(C)C)cs3)nc2c1Cl`
## Output 31

---

Test: Plasma concentration in Sprague-Dawley rat at 2 mg/kg, iv after 1 hr
Format: ADME, organism-based
Set-up: dose 2 mg/kg, route intravenous
Experimental Readout: concentration at 1 h (ng/mL)
Write the answer as a number in ng/mL, unit excluded.

## Input # lookup: concentration at 1 h of `COc1ccc2c(O[C@@H]3C[C@H]4C(=O)N[C@]5(C(=O)NS(=O)(=O)C6(C)CC6)C[C@H]5/C=C\CCCCCC(=O)N4C3)cc(-c3nc(C(C)C)cs3)nc2c1Cl`
## Output 449

FYI, the data here is from ChEMBL document CHEMBL1141682.
